System: bone marrow derived macrophages
Test Settings: female, BALB/c, mouse, 72 h
Listing of recorded LD50 bone marrow derived macrophages by entry.
Assay Endpoint: LD50 bone marrow derived macrophages (µM)

In [3]: df
Out[3]:
                                   molecule  rel  numeric_readout
0  Cc1nn(C)c(C)c1NS(=O)(=O)c1c(Cl)cc(-c2ccnc(N3CCN(C)CC3)c2)cc1Cl [DDD86211]    >               45
1  c1cncc(CCNCc2cccc(-c3cccc(CN4CCc5ncsc5C4)c3)c2)c1 [IMP-0000197]    =               50
2  Cc1nn(C)c(C)c1N(C(F)F)[S+](=O)([O-])c1c(Cl)cc(-c2ccnc(N3CCNCC3)c2)cc1Cl [DDD100887]    =               23
3  O=C(Cc1ccc(F)cc1)Nc1ccc2[nH]cc(C3CCNCC3)c2c1 [IMP-0000556]    >               45
4  N[C@@H](CC(=O)N1C[C@H](CO)[C@@H](c2ccc(Cl)cc2)C1)Cc1ccc(Cl)cc1 [IMP-0000195]    =               12

---

Test system: extracellular L. donovani amastigotes
Experiment Notes: Extracellular assay on amastigotes freshly isolated from mouse spleens, 72 h at 26°C, Alamar blue
Format: cell-based, Leishmania donovani
Test Settings: Leishmania donovani; NMT inhibitors; 72 h at 26°C; read-out: EC50 extracellular L. donovani amastigotes
# reported EC50; entries follow
Assay Endpoint: EC50 (µM)

                               input_smiles  unit_abbrev  numeric_readout
0  N[C@@H](CC(=O)N1C[C@H](CO)[C@@H](c2ccc(Cl)cc2)C1)Cc1ccc(Cl)cc1           µM               12
1  c1cncc(CCNCc2cccc(-c3cccc(CN4CCc5ncsc5C4)c3)c2)c1           µM               16
2  Cc1nn(C)c(C)c1N(C(F)F)[S+](=O)([O-])c1c(Cl)cc(-c2ccnc(N3CCNCC3)c2)cc1Cl           µM             0.66
3  Cc1nn(C)c(C)c1NS(=O)(=O)c1c(Cl)cc(-c2ccnc(N3CCN(C)CC3)c2)cc1Cl           µM             0.18
4   CN1CCC(N(C)c2nc(N(C)CCC#N)c3sccc3n2)CC1           µM               24
